Measured values drawn from ChEMBL document CHEMBL1149027 for this set.

experiment: Therapeutic index, ratio of IC50 for human H9 cells to EC50 for HIV1 3B; assay type: cell-based; settings: read-out: TI
Readout label: selectivity ratio
Please give only the number in your answer, with no unit.

Exercise: Bench note: what selectivity ratio did "O=c1cc(-c2ccc(O)cc2)oc2cc(O)cc(O)c12" show?
Key: 4

Exercise: selectivity ratio for "CC(=O)OC[C@H]1O[C@@H](Oc2cc(OC(C)=O)c3c(=O)cc(-c4ccc(OC(C)=O)c(OC(C)=O)c4)oc3c2)[C@H](OC(C)=O)[C@@H](OC(C)=O)[C@@H]1OC(C)=O" ?
Key: 1

Exercise: Name the recorded selectivity ratio for O=c1cc(-c2ccc(O)cc2)oc2cc(O[C@@H]3O[C@H](CO)C(O)[C@H](O)[C@H]3O)cc(O)c12 (single isomer, unassigned) .
Key: 2

Exercise: State the recorded selectivity ratio for this entry: O=c1cc(-c2ccccc2)oc2c(O)c(O)ccc12 [7,8-DIHYDROXYFLAVONE]
Key: 1

Exercise: What does the record list as selectivity ratio for "O=c1cc(-c2ccc(O)c(O)c2)oc2cc(O[C@@H]3O[C@H](CO)[C@@H](O)[C@H](O)[C@H]3O)cc(O)c12" ?
Key: 3

Exercise: So what's the measured selectivity ratio for this one? "O=c1cc(-c2ccc(F)cc2)oc2cc(O)cc(O)c12"
Key: 3

Exercise: Looking for the measured selectivity ratio of "O=c1c(O)c(-c2cc(O)c(O)c(O)c2)oc2cc(O)cc(O)c12" , can you help?
Key: 2

Exercise: Name the reported selectivity ratio value associated with the compound "O=c1cc(-c2ccc(O)c(O)c2)oc2cc(O)cc(O)c12"
Key: 2

Exercise: Value lookup for selectivity ratio; key = "O=c1cc(-c2ccc(Cl)cc2)oc2cc(O)cc(O)c12"
Key: 4

Exercise: So what's the measured selectivity ratio for this one? "O=c1c(O)c(-c2ccccc2)oc2cc(O)cc(O)c12"
Key: 2

Exercise: What does the record list as selectivity ratio for O=C1CC(c2ccccc2)Oc2ccccc21 (centres undefined) ?
Key: 1

Exercise: Look up selectivity ratio: "O=c1c(O)c(-c2ccc(O)c(O)c2)oc2cc(O)cc(O)c12"
Key: 1

Exercise: Any idea what selectivity ratio was measured for "O=c1cc(C2CCCCC2)oc2cc(O)cc(O)c12" ?
Key: 2

Exercise: Recorded selectivity ratio for "O=c1c(O)c(-c2ccccc2)oc2ccccc12" , please?
Key: 1

Exercise: Quick one: selectivity ratio of "Nc1c(O)cc(O)c2c(=O)cc(-c3ccccc3)oc12" ?
Key: 3

Exercise: Entry "CCCc1cc(=O)c2c(O)cc(O)cc2o1" : reported selectivity ratio = ?
Key: 3

Exercise: What value of selectivity ratio has been recorded for this entry: "O=c1c(O)c(-c2ccc(O)c(O)c2)oc2cc(O)ccc12"
Key: 1

Exercise: Any idea what selectivity ratio was measured for "O=c1cc(-c2ccccc2)oc2c([N+](=O)[O-])c(O)c([N+](=O)[O-])c(O)c12" ?
Key: 1

---

test: Therapeutic index, ratio of IC50 for human H9 cells to EC50 for HIV1 3B; assay type: cell-based; conditions: read-out: TI
API: label(entry) gives true (1) if the entry's selectivity ratio is strictly smaller than 3; on equality or larger values it gives false (0).

Exercise: Here's an entry: "O=c1cc(-c2ccc(Br)cc2)oc2cc(O)cc(O)c12" . Is its selectivity ratio below 3?
Key: false (0)

Exercise: I'd appreciate it if you could check whether Cc1cc(=O)c2c(O)cc(O)cc2o1 [NOREUGENIN] has selectivity ratio smaller than 3.
Key: false (0)

Exercise: Consider O=c1cc(-c2ccccc2)oc2ccccc12 [FLAVONE] . Does its selectivity ratio lie strictly below 3?
Key: true (1)

Exercise: For "O=c1cc(-c2ccccc2)oc2c([N+](=O)[O-])c(O)cc(O)c12" , is the recorded selectivity ratio below the cut-off of 3?
Key: true (1)

Exercise: I'd appreciate it if you could check whether O=c1cc(-c2ccccc2)oc2cc(O)cc(O)c12 [CHRYSIN] has selectivity ratio smaller than 3.
Key: false (0)

Exercise: Identify whether the molecule "COc1ccc(-c2cc(=O)c3c(O)cc(O[C@@H]4O[C@H](CO)[C@H](O)[C@H](O)[C@H]4O)cc3o2)cc1" records selectivity ratio below 3.
Key: false (0)
